Test system: HCT-116
Experiment: NCI tumour cell line growth inhibition, 48 h
The source made the active and inactive calls. No stated cut-off is given here; in the data, active = GI50 up to about 1.1 µM and inactive = higher.
Measured GI50, listed per entry.

Recorded GI50 of Cc1ccccc1/N=N/C(C(=O)c1ccccc1)C(=O)c1ccccc1 , please. 16.1 µM (inactive)

Same again, this time with NC1CC(=O)c2sccc21 (centres undefined) > 100 µM (inactive)

Same again, this time with CCN(CC)CCNc1ccc2nnn3c4ccc(C)cc4c(=O)c1c23 3.78 µM (inactive)

Same again, this time with COCC1N=C(c2cc(OC)c(OC)c(OC)c2-c2cc3c(cc2[C@H](C)O)OCO3)O[C@H]1c1ccccc1 (some centres undefined) 44.6 µM (inactive)

====

System: UACC-257
Experiment: NCI tumour cell line growth inhibition, 48 h
Active and inactive are the calls of the source. Rule as the data show it: active = GI50 up to about 1.1 µM and inactive = higher.
Respond only with the outcome that fits, drawn from active, inactive

Example entries and their recorded answers appear below.
COc1ccccc1/C=C(\NC(=O)c1ccccc1)c1nc2ccc(Cl)cc2[nH]1	inactive
CC(C)(C)c1cc(COc2cc(COc3ccc(-c4c5c(nc6c4CCc4ccc(-c7c8ccccc8nc8ccccc78)cc4-6)-c4cc(-c6c7ccccc7nc7ccccc67)ccc4CC5)cc3)cc(OCc3cc(C(C)(C)C)cc(C(C)(C)C)c3)c2)cc(C(C)(C)C)c1	inactive
CC(C)(C)C1CCC(CI)(N=[N+]=[N-])CC1 (stereo not given)	inactive
N=C(N)SCc1cccc([N+](=O)[O-])c1	inactive
NNC(=O)c1c(Cl)c(Cl)c(Cl)c(Cl)c1-c1nc2ccccc2[nH]1	inactive
C/C(=N\N=C(N)N)c1c(C(=O)OCCCCCCOC(=O)c2nc3sccn3c2/C(C)=N/N=C(N)N)nc2sccn12	inactive
Cc1c(CCCl)c(=O)n2c([nH]c3ccccc32)c1C#N	inactive
CC1(C)CC(=O)C2=C(C1)OC1=C(CC(C)(C)CC1=O)C2c1ccccc1Cl (stereo not given)	inactive

Record request — test call for CCOC(=O)C1C(=O)c2cccc(OC)c2C2COC(=O)N12 (stereo not given) inactive

Same again, this time with CC(=O)c1cc2ccccc2oc1=O [3-ACETYLCOUMARIN] inactive

Same again, this time with CCNCC(=O)O[C@]1(CC)C(=O)OCc2c1cc1n(c2=O)Cc2cc3ccccc3nc2-1 active

Same again, this time with CC(=O)NNc1nc(C)c(C(=O)NNC(=O)C(=O)Nc2c(C)cccc2C(C)C)s1 inactive

Same again, this time with Cc1ccc(C(=O)C(C)N)cc1C (stereo not given) inactive

Same again, this time with CC1(c2ccc[n+](Cc3ccccc3)c2)OCCO1 inactive

Same again, this time with C=[N+](CNC(=O)CNC(=O)C(Cc1ccccc1)NC(=O)OC(C)(C)C)C(=O)CNC(=O)C(Cc1ccccc1)NC(=O)OC(C)(C)C (stereo not given) inactive

Same again, this time with Oc1ccc(SCc2ccc(NCc3ccccc3)cc2)cc1 inactive

====

Test system: HL-60
Test: NCI tumour cell line growth inhibition, 48 h
Calls of active or inactive are those of the source. Cut-off read from the data, not from the text of the source: active = GI50 up to about 1.1 µM and inactive = higher. Non-standard residues stand in square brackets, D forms with d. Residues, ends and D or L forms follow the SMILES beside them. ΔPro = O=C(O)[CH]1C=CCN1
Respond only with the outcome that fits, drawn from active, inactive

Example entries and their recorded answers appear below.
COc1ccc(NC2CC(C)N(C(=O)c3ccccc3)O2)cc1 (stereo not given)	inactive
COC1C(O)C(C)OC(OC2C(Oc3cccc4c(O)c5c(=O)oc6ccc(C)c7c(=O)oc(c34)c5c67)OC(C)C(O)C2O)C1O (stereo not given)	inactive
CCCc1nc(Cl)nc(Cl)c1Cl	active
O=C(NC(=O)c1cn(CCN2CCNCC2)c(=O)[nH]c1=O)OCc1ccccc1	inactive
Cn1c(=O)c2sc3cc4c(cc3c2c2ccccc21)sc1c(=O)n(C)c2ccccc2c14	inactive
Cc1ccc(NC(=O)C(=O)C(C(=O)/C=C/c2ccccc2)C2OC(=O)c3ccccc32)c(C)c1 (stereo not given)	inactive
N#Cc1c(Cl)cccc1Oc1ccc(S(=O)(=O)N/C(=N\O)Nc2ccc(Cl)cc2)cc1	inactive
NS(=O)(=O)OCCCCCCCOS(N)(=O)=O	inactive

Record request — test call for COc1ccc2c(c1)CCC(OS(=O)(=O)CC13CCC(CC1=O)C3(C)C)C2=O (stereo not given) inactive

Same again, this time with CCOC(=O)C(NC(=O)CC)(Nc1ccccc1F)C(F)(F)F (stereo not given) inactive

Same again, this time with O=C1CSC(c2cccc(Cl)c2)N1c1ccc(-n2c(-c3ccccc3)nc3ccccc3c2=O)cc1 (stereo not given) inactive

Same again, this time with CCCCCCCCCCCCCCCCCCOCC(CO[PH](=O)O)OCCCCCCCCCCCCCCCCCC (stereo not given) inactive

Same again, this time with N/C(=N\c1ccccc1)c1ccccc1N inactive

Same again, this time with Cc1cc(-c2nc3cc(F)ccc3s2)ccc1NC(=O)C(C)N (stereo not given) active

Same again, this time with CC1=CC(=O)C(=CN2C(=O)/C(=C\c3cccnc3)NC2=S)C(=O)O1 inactive

Same again, this time with O=C(O)C1C=CCN1C(=O)C1C=CCN1C(=O)C1C=CCN1 (stereo not given) (H-[ΔPro]-[ΔPro]-[ΔPro]-OH; configuration not given here) inactive

====

System: SK-MEL-2
Test: NCI tumour cell line growth inhibition, 48 h
Calls of active or inactive are those of the source. No stated cut-off is given here; in the data, active = GI50 up to about 1.1 µM and inactive = higher.
Measured GI50, listed per entry.

CC1(C)[C@@H](Cn2cc(I)c(=O)[nH]c2=O)CC[C@@]1(C)CO	> 100 µM (inactive)

Recorded GI50 of CCOc1ccccc1NC(=O)C(=O)C(C(=O)c1ccc2ccccc2c1)C1OC(=O)c2ccccc21 (stereo not given) , please. 13.2 µM (inactive)

Same again, this time with CCN(CC)CCNc1ccc2nnn3c4ccc(C)cc4c(=O)c1c23 13.7 µM (inactive)

Same again, this time with CCOC(=O)C1C(=O)c2cccc(OC)c2C2COC(=O)N12 (stereo not given) > 100 µM (inactive)

Same again, this time with COc1ccc(/C=C/C(=O)c2sc(-n3nc(-c4ccccc4)cc3-c3ccccc3)nc2C)cc1OC 62.1 µM (inactive)

Same again, this time with CC(=O)OC1CC2C(C)(C)C(=O)C=C[C@]2(C)C2CCC3(C)C(=CC(=O)C3c3ccoc3)[C@]12C (stereo not given in full) 17.9 µM (inactive)

Same again, this time with CC1=CC(=O)C(=CN2C(=O)/C(=C\c3cccnc3)NC2=S)C(=O)O1 > 100 µM (inactive)

====

Test system: UACC-257
Assay: NCI tumour cell line growth inhibition, 48 h
Calls of active or inactive are those of the source. Rule as the data show it: active = GI50 up to about 1.1 µM and inactive = higher.
ENDPOINT: GI50

Here are 4 compounds together with their reported answers.
SC1=NNC2(C(S)=N1)c1ccccc1-c1ccccc12	> 10 µM (inactive)
C(#C[C@@]12CCC[C@@H]1NCO2)c1ccc2c(c1)OCO2	44.2 µM (inactive)
Clc1ccc(CSC2=NCCN2)cc1Cl	11.1 µM (inactive)
N#CC(C(=O)/C(=N\NC(N)=O)C(C#N)c1ccccc1)c1ccccc1 (configuration not stated)	> 100 µM (inactive)

Recorded GI50 of O=C1/C(=C/c2cccc([N+](=O)[O-])c2)COc2ccc(Br)cc21 , please. > 100 µM (inactive)

Same again, this time with NC(=O)N/N=C\c1ccccc1OCc1cccc(COc2ccccc2/C=N\NC(N)=O)n1 > 100 µM (inactive)

Same again, this time with CCCCCCCCCCCCCCNC(=O)CCC(NC(=O)c1ccc(N(C)Cc2cnc3nc(N)nc(N)c3n2)cc1)C(=O)NCCCCCCCCCCCCCC (configuration not stated) 10.7 µM (inactive)

====

Measured GI50, listed per entry.
Tested on: SK-OV-3
Assay: NCI tumour cell line growth inhibition, 48 h
Active and inactive are the calls of the source. Cut-off read from the data, not from the text of the source: active = GI50 up to about 1.1 µM and inactive = higher.

CO[C@@H]1C=C[C@@]23c4cc5c(cc4C(=O)O[C@H]2CN(C)[C@H]3C1)OCO5	> 100 µM (inactive)
COc1ccccc1NC(=O)CC(=O)n1nc(C)c(/N=N/c2ccccc2F)c1C	31.3 µM (inactive)
O=C(/C=C/c1ccc([N+](=O)[O-])cc1)c1nc2ccccc2[nH]1	> 100 µM (inactive)
O=C(COC(c1ccc(F)cc1)c1ccc(F)cc1)N1CCN(CCCc2ccccc2)CC1	6.97 µM (inactive)
COc1cc2c(cc1OC)C(O)[C@H](Br)C(C)(C)O2 (some centres undefined)	> 100 µM (inactive)

Recorded GI50 of Cc1ccc2c3c1O[C@H]1c4nc5ccccc5cc4C[C@@]4(O)[C@@H](C2)N(CC2CC2)CC[C@]314 , please. 14.1 µM (inactive)

Same again, this time with O=C(Nc1ccc(Cl)cc1)c1cc(S(=O)(=O)NC2=Nc3ccc(Cl)cc3C(c3ccccc3)N2)c(SSc2cc(Cl)c(C(=O)Nc3ccc(Cl)cc3)cc2S(=O)(=O)NC2=Nc3ccc(Cl)cc3C(c3ccccc3)N2)cc1Cl (centres undefined) > 100 µM (inactive)

Same again, this time with C[N+]1(CC[N+]2(C)CCCC2c2cccnc2)CCCC1c1cccnc1 (centres undefined) > 100 µM (inactive)

Same again, this time with CC1/C=C/[C@@]2(C)CCC(C(C)(C)O)C2C(O)C[C@](C)(O)/C=C/C1 (some centres undefined) > 100 µM (inactive)
